The origin of these recorded values is PubChem BioAssay AID758.

GTP binding activity (percent of control) reference
# System: Rab7 GTPase wild type (dog), Bodipy-FL-GTP binding
# Experiment Description: modulators of GTP binding to Rab7, primary screen, biochemical, wildtype, multiplex bead flow cytometry (AID 758);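 note: median green fluorescence of bound Bodipy-FL-GTP per Rab7 bead population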
# Assay Setup: GST-Rab7 beads, fluorescent GTP binding, at 10 µM, actives lie on both sides, untreated = 100%, excess cold GTP = 0%
The whole screen tested about 190,000 compounds, of which about 110 (0.058%) were called active. About 2% were inconclusive and are not listed. The sample holds actives, similar compounds and a random draw of the others, so the mix is not that of the screen.
Report only the number, with the unit % understood.

C=CCN(CC=C)S(=O)(=O)c1ccc(C(=O)Nc2nc3c(s2)CCc2ccccc2-3)cc1 :: 27

Exercise: Provide GTP binding activity (percent of control), tested on Rab7 GTPase wild type (dog), Bodipy-FL-GTP binding, for O=C(O/N=C(/c1ccccc1)c1ccncc1)c1ccccc1[N+](=O)[O-] .
Key: 95

Exercise: Provide GTP binding activity (percent of control), tested on Rab7 GTPase wild type (dog), Bodipy-FL-GTP binding, for CCCCCC1CCC(c2nnc(SCC(C)=O)o2)CC1 (stereo not drawn) .
Key: 104

Exercise: Provide GTP binding activity (percent of control), tested on Rab7 GTPase wild type (dog), Bodipy-FL-GTP binding, for c1ccc(Cc2cc[n+](Cc3ccccc3)cc2)cc1 .
Key: 106

Exercise: Provide GTP binding activity (percent of control), tested on Rab7 GTPase wild type (dog), Bodipy-FL-GTP binding, for Cc1cccc(/C(N)=N/OC(=O)c2ccccc2Cl)c1 .
Key: 95

Exercise: Provide GTP binding activity (percent of control), tested on Rab7 GTPase wild type (dog), Bodipy-FL-GTP binding, for c1ccc2c(c1)OCCOCCOCCO2 .
Key: 99

Exercise: Provide GTP binding activity (percent of control), tested on Rab7 GTPase wild type (dog), Bodipy-FL-GTP binding, for CCCCN(C(=O)/C=C/c1ccco1)c1c(N)n(CC(C)C)c(=O)[nH]c1=O .
Key: 98
